assay: Ocular tissue concentrations (aqueous humor, vitreous humor, iris, retina, choroid, cornea) after topical ocular, subcutaneous and intravitreal administration; format: in vivo, New Zealand White rabbits; conditions: New Zealand White, rabbit, iris, other: intravitreal, 2.5 mg/eye, Iris, 24 hr, right eye, intravitreal 2.5 mg/eye (group 5), individual animals; read-out: Conc. (ng/g) OD
endpoint-name: concentration at 24 h (ng/g)

>>> print(df.to_string())
                           structure_smiles          endpoint_name  meas_value
0  COC(=O)N[C@@H](Cc1ccccc1)C(=O)N[C@@H](Cc1ccc(NS(=O)(=O)O)cc1)c1csc(-c2cccs2)n1  concentration at 24 h       84400

====

experiment: Ocular tissue concentrations (aqueous humor, vitreous humor, iris, retina, choroid, cornea) after topical ocular, subcutaneous and intravitreal administration; format: in vivo, New Zealand White rabbits; conditions: New Zealand White, rabbit, retina, other: intravitreal, 2.5 mg/eye, Retina, 48 hr, average, intravitreal 2.5 mg/eye (group 5); read-out: Avg.
endpoint-name: concentration at 48 h (ng/g)

                           structure_smiles  meas_value
0  COC(=O)N[C@@H](Cc1ccccc1)C(=O)N[C@@H](Cc1ccc(NS(=O)(=O)O)cc1)c1csc(-c2cccs2)n1      680000

====

test: Plasma concentrations and pharmacokinetic parameters after topical ocular, subcutaneous and intravitreal administration; type: in vivo, New Zealand White rabbits; details: New Zealand White, rabbit, plasma, other: intravitreal, 2.5 mg/eye, intravitreal 2.5 mg/eye (~1.55 mg/kg), solution; 6.0 hr; read-out: plasma Average
Where a name gives a salt, the structure may show the parent alone.
endpoint-name: concentration at 6 h

>>> df
                                   compound    meas_value
0  COC(=O)N[C@@H](Cc1ccccc1)C(=O)N[C@@H](Cc1ccc(NS(=O)(=O)O)cc1)c1csc(-c2cccs2)n1 [Compound 1 sodium salt]  0.0368 µg/mL

====

assay: Plasma concentrations and pharmacokinetic parameters after topical ocular, subcutaneous and intravitreal administration; format: in vivo, New Zealand White rabbits; details: New Zealand White, rabbit, plasma, other: intravitreal, 2.5 mg, plasma; intravitreal 2.5 mg/eye (~1.54 mg/kg), suspension
endpoint-name: Cmax

>>> df
                                   molecule  endpoint_name  meas_value
0  COC(=O)N[C@@H](Cc1ccccc1)C(=O)N[C@@H](Cc1ccc(NS(=O)(=O)O)cc1)c1csc(-c2cccs2)n1 [Compound 1 free acid]           Cmax  25.3 ng/mL

====

assay: Plasma concentrations and pharmacokinetic parameters after topical ocular, subcutaneous and intravitreal administration; assay type: in vivo, New Zealand White rabbits; details: New Zealand White, rabbit, plasma, topical or ocular, 0.7 mg/kg, plasma; topical ocular 1.2 mg/eye (~0.7 mg/kg/dose), solution; read-out: AUClast (± SE)
Counter-ions that a name gives are not always drawn.
endpoint-name: AUC(0-t) (ng·h/mL)

In [3]: df
Out[3]:
                                   compound  endpoint_name  meas_value
0  COC(=O)N[C@@H](Cc1ccccc1)C(=O)N[C@@H](Cc1ccc(NS(=O)(=O)O)cc1)c1csc(-c2cccs2)n1 [Compound 1 sodium salt]       AUC(0-t)        11.8
